Ref: ChEMBL document CHEMBL5608246

Would you kindly list selectivity ratio for each of these molecules?
- assay notes: Selectivity index, ratio of HC50 for sheep RBC to MIC for Staphylococcus aureus ATCC 29213
- Assay type: toxicity
- condition summary: sheep red blood cells, read-out: Selectivity Index

// selectivity ratio value for `C=CCc1cc(-c2ccc(OCCC[N+](C)(C)CC(=O)NCCCC)c(CC=C)c2)c2oc(-c3ccccc3Br)nc2c1.[Br-]` : > 80

// selectivity ratio value for `C=CCc1cc(-c2ccc(OCCC[N+](C)(C)CC(=O)NCCCC)c(CC=C)c2)c2oc(-c3cc(Br)ccc3F)nc2c1.[Br-]` : > 5

// selectivity ratio value for `C=CCc1cc(-c2ccc(OCCC[N+](C)(C)CC(=O)NCCCC)c(CC=C)c2)c2oc(-c3ccc(Br)cc3)nc2c1.[Br-]` : > 5

// selectivity ratio value for `C=CCc1ccc(O)c(-c2ccc(O)c(CC=C)c2)c1` : > 1.25

// selectivity ratio value for `C=CCc1cc(-c2ccc(OCCC[N+](C)(C)CC(=O)NCCCC)c(CC=C)c2)c2oc(-c3ccc(Cl)cc3)nc2c1.[Br-]` : > 40

// selectivity ratio value for `C=CCc1cc(-c2ccc(OCCC[N+](C)(C)CC(=O)NCCCC)c(CC=C)c2)c2oc(-c3cccc(Br)c3)nc2c1.[Br-]` : > 10

// selectivity ratio value for `C=CCc1cc(-c2ccc(OCCC[N+](C)(C)CC(=O)NCCCC)c(CC=C)c2)c2oc(-c3ccc(F)cc3)nc2c1.[Br-]` : > 10

// selectivity ratio value for `C=CCc1cc(-c2ccc(OCCC[N+](C)(C)CC(=O)NCCCC)c(CC=C)c2)c2oc(-c3ccc(F)c(Cl)c3)nc2c1.[Br-]` : > 5

// selectivity ratio value for `C=CCc1cc(-c2ccc(OCCC[N+](C)(C)CC(=O)NCCCC)c(CC=C)c2)c2oc(-c3ccccc3)nc2c1.[Br-]` : > 20

// selectivity ratio value for `C=CCc1cc(-c2ccc(OCCC[N+](C)(C)CC(=O)NCCCC)c(CC=C)c2)c2oc(-c3cc(F)c(F)c(F)c3)nc2c1.[Br-]` : < 0.5

// selectivity ratio value for `C=CCc1cc(-c2ccc(OCCC[N+](C)(C)CC(=O)NCCCC)c(CC=C)c2)c2oc(-c3ccc(Cl)c(Br)c3)nc2c1.[Br-]` : > 2.5

====

- Test system: Staphylococcus aureus
- assay notes: Antibacterial activity against methicillin resistant Staphylococcus aureus M22 incubated for 16 to 18 hrs by broth dilution method
- Assay type: functional
- condition summary: time 16-18 hrs
recorded metric: MIC (µg/mL)
Just the number in µg/mL, nothing appended.

Entry `C=CCc1cc(-c2ccc(OCCC[N+](C)(C)CC(=O)NCCCC)c(CC=C)c2)c2oc(-c3cc(Cl)cc(Cl)c3)nc2c1.[Br-]` under Staphylococcus aureus had MIC of 128

Entry `C=CCc1cc(-c2ccc(OCCC[N+](C)(C)CC(=O)NCCCC)c(CC=C)c2)c2oc(-c3c(Cl)cccc3Cl)nc2c1.[Br-]` under Staphylococcus aureus had MIC of 2

Entry `C=CCc1cc(-c2ccc(OCCC[N+](C)(C)CC(=O)NCCCC)c(CC=C)c2)c2oc(-c3ccccc3Br)nc2c1.[Br-]` under Staphylococcus aureus had MIC of 4

Entry `C=CCc1cc(-c2ccc(OCCC[N+](C)(C)CC(=O)NCCCC)c(CC=C)c2)c2oc(-c3ccc(Cl)cc3F)nc2c1.[Br-]` under Staphylococcus aureus had MIC of 128

Entry `C=CCc1cc(-c2ccc(OCCC[N+](C)(C)CC(=O)NCCCC)c(CC=C)c2)c2oc(-c3cc(Br)ccc3F)nc2c1.[Br-]` under Staphylococcus aureus had MIC of 8

Entry `C=CCc1ccc(O)c(-c2ccc(O)c(CC=C)c2)c1` under Staphylococcus aureus had MIC of 16

Entry `C=CCc1cc(-c2ccc(OCCC[N+](C)(C)CC(=O)NCCCC)c(CC=C)c2)c2oc(-c3ccc(OC)cc3)nc2c1.[Br-]` under Staphylococcus aureus had MIC of 2

Entry `C=CCc1cc(-c2ccc(OCCC[N+](C)(C)CC(=O)NCCCC)c(CC=C)c2)c2oc(-c3cc(F)c(F)c(F)c3)nc2c1.[Br-]` under Staphylococcus aureus had MIC of 64

Entry `C=CCc1cc(-c2ccc(OCCC[N+](C)(C)CC(=O)NCCCC)c(CC=C)c2)c2oc(-c3ccc(F)c(Cl)c3)nc2c1.[Br-]` under Staphylococcus aureus had MIC of 16

Entry `C=CCc1cc(-c2ccc(OCCC[N+](C)(C)CC(=O)NCCCC)c(CC=C)c2)c2oc(-c3ccc(Cl)c(Cl)c3)nc2c1.[Br-]` under Staphylococcus aureus had MIC of 64

Entry `C=CCc1cc(-c2ccc(OCCC[N+](C)(C)CC(=O)NCCCC)c(CC=C)c2)c2oc(-c3ccc(Cl)c(F)c3)nc2c1.[Br-]` under Staphylococcus aureus had MIC of 8
